# system.under.test: Delta-type opioid receptor (Homo sapiens)
# Sequence (P41143 whole entry): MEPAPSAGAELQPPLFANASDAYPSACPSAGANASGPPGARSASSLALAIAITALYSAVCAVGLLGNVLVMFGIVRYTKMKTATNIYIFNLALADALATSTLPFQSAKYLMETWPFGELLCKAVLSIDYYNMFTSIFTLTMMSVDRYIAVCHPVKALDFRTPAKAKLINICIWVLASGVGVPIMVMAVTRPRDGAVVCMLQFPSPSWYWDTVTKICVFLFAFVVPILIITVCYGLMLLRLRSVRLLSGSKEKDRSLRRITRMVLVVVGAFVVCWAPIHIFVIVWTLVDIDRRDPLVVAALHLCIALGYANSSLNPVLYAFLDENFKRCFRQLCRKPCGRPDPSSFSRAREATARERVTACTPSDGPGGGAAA
# test.name: Displacement of [3H]-diprenorphine from human delta opioid receptor expressed in CHO cell membranes incubated for 1 hr by competition radioligand binding assay
Hi! Just check whether Ki is below 8 nM. Below gives 1.0, equal or above gives 0.0.

Example entries begin here.
Oc1ccc2c3c1O[C@H]1c4ncc(-c5ccncc5)cc4C[C@@]4(OCCCc5ccccc5)[C@@H](C2)N(CC2CC2)CC[C@]314    1.0
COc1ccccc1-c1cnc2c(c1)C[C@@]1(OCCCc3ccccc3)[C@H]3Cc4ccc(O)c5c4[C@@]1(CCN3CC1CC1)[C@H]2O5    0.0
CN(C)c1ccccc1-c1cnc2c(c1)C[C@@]1(OCCCc3ccccc3)[C@H]3Cc4ccc(O)c5c4[C@@]1(CCN3CC1CC1)[C@H]2O5    0.0

Request: Is it true that Ki reported for `CN(C)Cc1ccccc1-c1cnc2c(c1)C[C@@]1(OCCCc3ccccc3)[C@H]3Cc4ccc(O)c5c4[C@@]1(CCN3CC1CC1)[C@H]2O5` is less than 8 nM?
Response: 0.0

Request: Strictly below 8 nM in Ki? `Oc1ccc2c3c1O[C@H]1c4ncc(-n5cccc5)cc4C[C@@]4(OCCCc5ccccc5)[C@@H](C2)N(CC2CC2)CC[C@]314`
Response: 1.0

Request: Is Ki strictly under 8 nM for the entry `Oc1ccc2c3c1O[C@H]1c4ncc(-c5ccc(F)c(F)c5)cc4C[C@@]4(OCCCc5ccccc5)[C@@H](C2)N(CC2CC2)CC[C@]314` ?
Response: 1.0

Request: Lab note: confirm whether the reported Ki for this compound is below 8 nM, equality not counting. compound: `Oc1ccc2c3c1O[C@H]1c4ncc(-c5ccccc5)cc4C[C@@]4(OCCCC5CCCCC5)[C@@H](C2)N(CC2CC2)CC[C@]314`
Response: 0.0

Request: Identify whether the compound `Oc1ccc2c3c1O[C@H]1c4ncc(-c5ccc(Br)cc5)cc4C[C@@]4(OCCCc5ccccc5)[C@@H](C2)N(CC2CC2)CC[C@]314` records Ki below 8 nM.
Response: 0.0
